# Target Or System: recombinant human cGAS enzyme (hcGAS-ΔN, residues 147–522) (Homo sapiens, UniProt Q8N884)
# Construct: N-terminally truncated human cGAS (hcGAS-ΔN, residues 147–522); 6xHis-SUMO (N, cleaved yes); made in house; host or cells: Escherichia coli BL21 (DE3)
# Sequence (Q8N884 147-522, stated change not applied): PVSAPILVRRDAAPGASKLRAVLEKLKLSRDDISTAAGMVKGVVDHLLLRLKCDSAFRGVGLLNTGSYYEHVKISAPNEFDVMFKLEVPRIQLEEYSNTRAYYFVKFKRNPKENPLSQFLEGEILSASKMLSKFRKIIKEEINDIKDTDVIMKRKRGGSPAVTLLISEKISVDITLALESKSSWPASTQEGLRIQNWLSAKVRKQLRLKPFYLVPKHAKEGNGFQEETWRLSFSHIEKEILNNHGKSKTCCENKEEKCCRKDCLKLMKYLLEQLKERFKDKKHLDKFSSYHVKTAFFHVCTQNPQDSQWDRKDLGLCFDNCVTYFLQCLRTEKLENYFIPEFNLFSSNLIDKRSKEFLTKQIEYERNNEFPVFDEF
# Assay Protocol: RNA-based fluorescent biosensor assay of cGAS activity (2',3'-cGAMP formation), in vitro screening
# Assay type: biochemical
# Settings: 20 μM; replicate values; read-out: Remaining activity (%), Fig. 1a source data
Square brackets hold non-standard residues; d marks the D form. Peptide text beside a SMILES is read from it. Hyp = O=C(O)[C@@H]1C[C@@H](O)CN1; Orn = NCCC[C@H](N)C(=O)O
Recorded remaining activity at 20 µM for the following compounds
Give just the numeric value; % need not be written.

compound="CC(C)C[C@@H]1NC(=O)[C@H](CCCN)NC(=O)[C@H](C(C)C)NC(=O)[C@@H]2CCCN2C(=O)[C@@H](Cc2ccccc2)NC(=O)[C@H](CC(C)C)NC(=O)[C@H](CCCN)NC(=O)[C@H](C(C)C)NC(=O)[C@@H]2CCCN2C(=O)[C@@H](Cc2ccccc2)NC1=O [XQ39, Cyclo (LfPV(Orn)LfPV(Orn))] (cyclo(V[Orn]L[dF]PV[Orn]L[dF]P))" observable="remaining activity at 20 µM" test_result=97.2
compound="CC(C)C[C@@H]1NC(=O)[C@H](CCCNC(=N)N)NC(=O)[C@H]([C@@H](C)O)NC(=O)[C@@H]2CCCN2C(=O)[C@@H](Cc2ccccc2)NC(=O)[C@H](CC(C)C)NC(=O)[C@H](CCCNC(=N)N)NC(=O)[C@H]([C@@H](C)O)NC(=O)[C@@H]2CCCN2C(=O)[C@@H](C)NC1=O [XQ34, Cyclo (LaPTRLfPTR)] (cyclo(L[dA]PTRL[dF]PTR))" observable="remaining activity at 20 µM" test_result=103

// returns reported remaining activity at 20 µM for input CC(C)C[C@@H]1NC(=O)[C@H](C)NC(=O)[C@H](CCCNC(=N)N)NC(=O)[C@@H]2CCCN2C(=O)[C@@H](Cc2ccccc2)NC(=O)[C@H](CC(C)C)NC(=O)[C@H](CCCNC(=N)N)NC(=O)[C@H](C(C)C)NC(=O)[C@@H]2CCCN2C(=O)[C@@H](Cc2ccccc2)NC1=O [XQ43, Cyclo (LfPRALfPVR)] (cyclo(AL[dF]PVRL[dF]PR))
76.3

GET /values?readout=remaining activity at 20 µM&item= CC(C)C[C@@H]1NC(=O)[C@H](C)NC(=O)[C@H](C(C)C)NC(=O)[C@@H]2CCCN2C(=O)[C@@H](Cc2ccccc2)NC(=O)[C@H](CC(C)C)NC(=O)[C@H](CCCNC(=N)N)NC(=O)[C@H](C(C)C)NC(=O)[C@H](CCCNC(=N)N)NC(=O)[C@@H](Cc2ccccc2)NC1=O [XQ45, Cyclo (LfRVRLfPVA)] (cyclo(AL[dF]RVRL[dF]PV))
115

remaining activity at 20 µM for N=C(N)NCCC[C@@H]1NC(=O)[C@@H]2CCCN2C(=O)[C@H](Cc2ccccc2)NC(=O)[C@H](CCCNC(=N)N)NC(=O)[C@@H]2CCCN2C(=O)[C@H](Cc2ccccc2)NC1=O [XQ28, Cyclo (RFPRFP)] (cyclo(FPRFPR)) ?
107

Form field: reported remaining activity at 20 µM of CC(C)C[C@@H]1NC(=O)[C@H](CCCNC(=N)N)NC(=O)[C@H]([C@@H](C)O)NC(=O)[C@@H]2C[C@@H](O)CN2C(=O)[C@@H](Cc2ccccc2)NC(=O)[C@H](CC(C)C)NC(=O)[C@H](CCCNC(=N)N)NC(=O)[C@H]([C@@H](C)O)NC(=O)[C@@H]2CCCN2C(=O)[C@@H](Cc2ccccc2)NC1=O [XQ33, Cyclo (Lf(Hyp)TRLfPTR)] (cyclo([Hyp]TRL[dF]PTRL[dF]))
97.1
